Reference source for all entries: patent US11696928B2

- study-system: AhR (Homo sapiens, UniProt P35869)
- Construct: One of the resultant clones was named HEK-XRE 11.1, and used in the reporter gene assays; endogenous in cells; host or cells: HEK-XRE 11.1 (HEK cells stably carrying the AhR-responsive luciferase reporter X4-4.27 and phRL-CMV)
- protocol-details: Inhibition of AhR-mediated gene transcription (HEK-XRE 11.1 luciferase reporter, MeBIO induction)
- Assay type: cell-based
- cond: HEK-XRE 11.1 cells, MeBIO 0.1 nM, luminescence after 24 hours; Table 1
Listing: IC50 of selected compounds

Consider the compound Nc1c(C(=O)Nc2ccc3c(c2)OCO3)sc2ncc(C(F)(F)F)cc12 and give its measured IC50. 50 to 500 nM

Consider the compound CCc1cnc2sc(C(=O)Nc3ccncc3)c(N)c2c1 and give its measured IC50. 50 to 500 nM

Consider the compound Cc1cnc2sc(C(=O)Nc3ccc(Br)cc3)c(N)c2c1 and give its measured IC50. < 50 nM

Consider the compound Nc1c(C(=O)Nc2ccc(Cl)cc2)sc2nc3c(cc12)CCC3 and give its measured IC50. < 50 nM

Consider the compound Nc1c(C(=O)Nc2cccnc2)sc2ncc(C(F)(F)F)cc12 and give its measured IC50. > 500 nM

---

- study-system: AhR (Homo sapiens)
- Construct: One of the resultant clones was named HEK-XRE 11.1, and used in the reporter gene assays; endogenous in cells; host or cells: HEK-XRE 11.1 (HEK cells stably carrying the AhR-responsive luciferase reporter X4-4.27 and phRL-CMV)
- Sequence (P35869 11-848): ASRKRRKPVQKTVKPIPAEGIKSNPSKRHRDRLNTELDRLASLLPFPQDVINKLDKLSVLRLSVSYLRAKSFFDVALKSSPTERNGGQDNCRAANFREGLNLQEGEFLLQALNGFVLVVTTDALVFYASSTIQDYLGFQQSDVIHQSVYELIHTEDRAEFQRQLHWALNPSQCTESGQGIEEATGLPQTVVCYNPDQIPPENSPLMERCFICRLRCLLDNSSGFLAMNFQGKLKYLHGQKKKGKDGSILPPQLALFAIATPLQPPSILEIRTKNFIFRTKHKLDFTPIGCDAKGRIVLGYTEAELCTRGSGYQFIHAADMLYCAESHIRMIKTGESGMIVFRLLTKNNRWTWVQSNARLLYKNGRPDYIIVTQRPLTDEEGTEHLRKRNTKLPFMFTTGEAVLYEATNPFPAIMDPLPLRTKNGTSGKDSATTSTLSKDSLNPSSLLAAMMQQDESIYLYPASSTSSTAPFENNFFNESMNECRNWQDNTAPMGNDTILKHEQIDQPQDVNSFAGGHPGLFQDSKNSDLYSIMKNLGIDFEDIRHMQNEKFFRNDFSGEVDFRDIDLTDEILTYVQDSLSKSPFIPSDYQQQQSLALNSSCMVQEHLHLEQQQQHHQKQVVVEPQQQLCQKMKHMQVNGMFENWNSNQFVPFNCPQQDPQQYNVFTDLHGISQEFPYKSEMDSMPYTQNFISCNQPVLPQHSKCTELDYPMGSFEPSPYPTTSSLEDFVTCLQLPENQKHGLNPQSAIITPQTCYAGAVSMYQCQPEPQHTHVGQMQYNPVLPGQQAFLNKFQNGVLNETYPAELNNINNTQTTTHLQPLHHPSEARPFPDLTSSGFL
- protocol-details: Inhibition of AhR-mediated gene transcription (HEK-XRE 11.1 luciferase reporter, MeBIO induction)
- Format: cell-based
- cond: HEK-XRE 11.1 cells, MeBIO 0.1 nM, luminescence after 24 hours; Table 1
pIC50: −log10 of the molar value.
endpoint: pIC50

Here is how some molecules turned out for pIC50.
- molecule: "Nc1c(C(=O)Nc2cccnc2)sc2ccc(C(F)(F)F)cc12 [Compound 1067]"
  study-system: "AhR (Homo sapiens)"
  pIC50: "> 7.30"
- molecule: "Cc1ccc(NC(=O)c2sc3ncc(C(F)(F)F)cc3c2N)cc1F [Compound 1078]"
  study-system: "AhR (Homo sapiens)"
  pIC50: "6.30 to 7.30"
- molecule: "Cc1ccc(NC(=O)c2sc3ccc(C(F)(F)F)cc3c2N)cc1 [Compound 1065]"
  study-system: "AhR (Homo sapiens)"
  pIC50: "6.30 to 7.30"
- molecule: "Nc1c(C(=O)Nc2ccccc2)sc2nc3c(cc12)CCCCC3 [Compound 1113]"
  study-system: "AhR (Homo sapiens)"
  pIC50: "6.30 to 7.30"

Consider the molecule Nc1c(C(=O)Nc2cccc(Cl)c2)sc2ncc(C(F)(F)F)cc12 [Compound 1093] and give its measured pIC50. > 7.30

Consider the molecule Nc1c(C(=O)Nc2ccc3c(c2)OCCO3)sc2ccc(C(F)(F)F)cc12 [Compound 1146] and give its measured pIC50. 6.30 to 7.30

Consider the molecule C=C(C)c1cnc2sc(C(=O)Nc3ccccc3)c(N)c2c1 [Compound 1090] and give its measured pIC50. > 7.30

Consider the molecule Cc1ccc2sc(C(=O)Nc3ccc(F)cc3)c(N)c2c1 [Compound 1120] and give its measured pIC50. > 7.30

Consider the molecule C=CCc1cnc2sc(C(=O)Nc3ccccc3)c(N)c2c1 [Compound 1111] and give its measured pIC50. 6.30 to 7.30
